Listed here are binders together with their documented OD450 at 0.01 nM.
Target: T1, monkey GPC3-His protein (monkey)
T1 construct: Bought recombinant protein; also called monkey GPC3 protein
Experiment: ELISA, monkey GPC3-His coated;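 note: Plate-coated antigen at 1 µg/mL, antibody binding 2 h at 37 °C, detected with HRP-labeled secondary antibody and TMB, absorbance at 450 nm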
Just the number in OD450, nothing appended.

binder | reading
F1.92.17 (antibody, human IgG1, kappa, V domains shown, Human-murine chimeric antibody) VH: EVQLQQSGPELVKPGASVKMSCKASGYTFTDYNMHWVRQSHGKSLEWIGYINPNNGDTIYNQNFKGKATLTVNKSSSTAYMELRSLTSEDSAVYYCSRTITYYYSMDYWGPGTSVTVSS VL: QIVLTQSPALMSASPGEKVTMTCSASSSVSYMYWYQQKPRSSPKPWIYLTSNLASGVPARFSGSGSGTSYSLTISSMEAEDAATYYCQQWSSNPLTFGAGTKLELKR | 0.06
F1.2.14 (antibody, human IgG1, kappa, V domains shown, Human-murine chimeric antibody) VH: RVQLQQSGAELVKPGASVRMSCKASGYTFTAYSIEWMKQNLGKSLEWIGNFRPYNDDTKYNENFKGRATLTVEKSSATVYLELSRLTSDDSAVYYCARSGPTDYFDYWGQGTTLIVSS VL: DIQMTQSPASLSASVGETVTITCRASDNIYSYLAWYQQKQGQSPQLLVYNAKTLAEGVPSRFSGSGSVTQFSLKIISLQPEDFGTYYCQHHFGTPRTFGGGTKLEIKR | 0.07

Next binder, please.
Data point: F1.73.9 (antibody, human IgG1, kappa, V domains shown, Human-murine chimeric antibody) VH: QVQLKQSGAELVRPGASVKLSCKASGYTFTDYYINWVKQRPGQGLEWIARIYPGSGNTYYNEKFKGKATLTAEKSSSTAYMQFSSLTSEDSAVYFCACSTYYTMDYWGQGTSVTVSS VL: QIVLTQSPAIMSASLGERVTMTCTASSGVSSSYLHWYQQKPGSSPKLWIYTTSNLASGVPARFSGSGSGTSYSLTISSMEAEDAATYYCHQYHRSPYTFGGGTKLEIKR ; OD450 at 0.01 nM = 0.18

Value source: patent US20260116991A1
